Where these numbers come from: patent US12507703B2

# Tested on: lipase
# ASSAY SUMMARY: Lipase/lipolysis assay (EnzChek Lipase Substrate, quenched BODIPY-fatty acid conjugate) on stored human milk; further: test concentration or dose not given here
Label key: t means Lipase (RFU) under 900 RFU; f means Lipase (RFU) of 900 RFU or more.

Query block: # strict comparison: is reported Lipase (RFU) < 900 RFU? input = O=C(/C=C/c1ccc(O)cc1)NCCc1ccc(O)cc1 [N-p-trans-Coumaroyltyramine]
Result block: f

Query block: Hello, is Lipase (RFU) of the following compound strictly smaller than 900 RFU? COC(=O)C1=CO[C@@H](O[C@@H]2O[C@H](CO)[C@@H](O)[C@H](O)[C@H]2O)[C@H]2[C@@H]1C(=O)C[C@@H]2C
Result block: f

Query block: Lab note: confirm whether the reported Lipase (RFU) for this compound is below 900 RFU, equality not counting. compound: CC(C)(C)[C@]1(O)CC2OC(=O)CC23C(=O)OC2OC(=O)[C@H](O)C231 (stereo partly drawn) [Bilobalide]
Result block: f

Query block: Would you kindly verify if Lipase (RFU) of CC(C)=CCC[C@](C)(O[C@@H]1O[C@H](CO[C@@H]2OC[C@H](O)[C@H](O)[C@H]2O)[C@@H](O)[C@H](O)[C@H]1O)[C@H]1CC[C@]2(C)[C@@H]1[C@H](O)C[C@@H]1[C@@]3(C)CC[C@H](O[C@@H]4O[C@H](CO)[C@@H](O)[C@H](O)[C@H]4O[C@@H]4O[C@H](CO)[C@@H](O)[C@H](O)[C@H]4O)C(C)(C)[C@@H]3CC[C@]12C [Ginsenoside Rb2] is strictly less than 900 RFU?
Result block: t

* * *

Provide the recorded Lipase (RFU) for the entries that follow.
# Test system: lipase
# ASSAY SUMMARY: Lipase/lipolysis assay (EnzChek Lipase Substrate, quenched BODIPY-fatty acid conjugate) on stored human milk; further: test concentration or dose not given here
A number alone suffices; assume RFU.

Query block: Lipase (RFU) of O=c1c(-c2ccc(O)cc2)coc2cc(O[C@@H]3O[C@H](CO)[C@@H](O)[C@H](O)[C@H]3O)ccc12 [Daidzin] on lipase?
Result block: 828.0829

Query block: Item: CCN(Cc1cccc(S(=O)(=O)[O-])c1)c1ccc(C(=C2C=CC(=[N+](CC)Cc3cccc(S(=O)(=O)[O-])c3)C=C2)c2ccccc2S(=O)(=O)[O-])cc1.[Na+].[Na+] [Brilliant Blue FCF] Test system: lipase Read-out: Lipase (RFU) Value: ?
Result block: 652.1115

Query block: I'm curious: which Lipase (RFU) was measured for O=c1c(O[C@@H]2O[C@H](CO)[C@H](O)[C@H](O)[C@H]2O[C@@H]2O[C@H](CO)[C@@H](O)[C@H](O)[C@H]2O)c(-c2ccc(O)cc2)oc2cc(O)cc(O)c12 [Panasenoside] tested on lipase?
Result block: 1093.409

Query block: Please provide the recorded Lipase (RFU) for O=S(=O)(O)SSS(=O)(=O)O [Tetrathionate] , tested on lipase.
Result block: 924.2846

Query block: // lookup Lipase (RFU) | system=lipase | key= Nc1nc2c(ncn2[C@H]2C[C@H](O)[C@@H](CO)O2)c(=O)[nH]1.O [2′-Deoxyguanosine monohydrate]
Result block: 782.4513

Query block: Write down the reported Lipase (RFU) of OC[C@H]1O[C@@H](O[C@H]2[C@H](O)[C@@H](O)[C@@H](O)O[C@@H]2CO)[C@H](O)[C@@H](O)[C@H]1O [α-Lactose] , test system: lipase.
Result block: 963.7922

* * *

# Tested on: lipase
# ASSAY SUMMARY: Lipase/lipolysis assay (EnzChek Lipase Substrate, quenched BODIPY-fatty acid conjugate) on stored human milk; further: test concentration or dose not given here
MEASURED ATTRIBUTE: Lipase (RFU)
Respond with the bare value in RFU.

Query block: Value lookup for Lipase (RFU); key = O=c1c(O)c(-c2ccc(O)c(O)c2)oc2cc(O[C@@H]3O[C@H](CO)[C@@H](O)[C@H](O)[C@H]3O)cc(O)c12
Result block: 857.409

Query block: Give its Lipase (RFU) value. Item: NC(Cc1ccc(O)c(O)c1)C(=O)O (racemic)
Result block: 819.29

Query block: State the recorded Lipase (RFU) for this entry: C[S+](CC[C@H](N)C(=O)[O-])C[C@H]1O[C@@H](n2cnc3c(N)ncnc32)[C@H](O)[C@@H]1O.Cc1ccc(S(=O)(=O)O)cc1.O=S(=O)(O)O.O=S(=O)(O)O (stereo partly shown)
Result block: 726.0141

Query block: Requested read-out: Lipase (RFU). Entry: C=C1[C@H]2CC[C@@H]3[C@H]2C(C)(C)CCC[C@]13C [(+)-Longifolene]
Result block: 1228.195

* * *

# Tested on: lipase
# ASSAY SUMMARY: Lipase/lipolysis assay (EnzChek Lipase Substrate, quenched BODIPY-fatty acid conjugate) on stored human milk; further: test concentration or dose not given here
MEASURED ATTRIBUTE: Lipase (RFU)
Answer format: numeric, RFU implied, no suffix.

Query block: Fill in the recorded Lipase (RFU) for this compound, with lipase as test system: CC[C@H]1[C@@H]2C[C@H]3[C@@H]4N(C)c5ccccc5[C@]45C[C@@H]([C@H]2[C@H]5O)N3[C@@H]1O
Result block: 916.1038

Query block: # get_value(readout= Lipase (RFU), system= lipase) for CC1(C)[C@@H](O)CC[C@]2(C)[C@H]3C(=O)C=C4[C@H]5C[C@@](C)(C(=O)O)CC[C@]5(C)CC[C@@]4(C)[C@]3(C)CC[C@@H]12
Result block: 794.4219

Query block: Observed Lipase (RFU) on lipase for C[n+]1cn([C@@H]2O[C@H](CO)[C@@H](O)[C@H]2O)c2nc(N)[nH]c(=O)c21 , please.
Result block: 974.6149

Query block: Record lookup: for lipase, what Lipase (RFU) belongs to CC(C)=CCC[C@](C)(O[C@@H]1O[C@H](CO)[C@@H](O)[C@H](O)[C@H]1O)[C@H]1CC[C@]2(C)[C@@H]1[C@H](O)C[C@@H]1[C@@]3(C)CC[C@H](O)C(C)(C)[C@@H]3[C@@H](O[C@@H]3O[C@H](CO)[C@@H](O)[C@H](O)[C@H]3O)C[C@]12C [Ginsenoside Rg1] ?
Result block: 1026.433

Query block: Return Lipase (RFU) measured with lipase given this compound: Cc1ccc(OS(=O)(=O)[O-])cc1.[K+] [p-Cresyl sulfate (potassium)]
Result block: 825.569

* * *

For each record, write down the corresponding Lipase (RFU).
# Test system: lipase
# ASSAY SUMMARY: Lipase/lipolysis assay (EnzChek Lipase Substrate, quenched BODIPY-fatty acid conjugate) on stored human milk; further: test concentration or dose not given here
// units = RFU; emit number, no label

Query block: Requested field: Lipase (RFU). Item: CC1=C(C)C(=O)C(CC[C@](C)(O)CCC[C@H](C)CCC[C@H](C)CCCC(C)C)=C(C)C1=O
Result block: 598.2224

Query block: Requested read-out: Lipase (RFU). Entry: CN(C)C(N)=NCCC[C@H](N)C(=O)O
Result block: 806.9828

Query block: GET /values?readout=Lipase (RFU)&item= CC(C)(O)/C=C/C(=O)[C@](C)(O)[C@H]1[C@H](O)C[C@@]2(C)[C@@H]3CC=C4[C@@H](C[C@H](O)C(=O)C4(C)C)[C@]3(C)C(=O)C[C@]12C
Result block: 937.0398

Query block: Given O=C(O)c1cc(O)c2cccc(O)c2n1 , state its recorded Lipase (RFU).
Result block: 1023.37

Query block: What value of Lipase (RFU) has been reported for the following compound? COc1ccc(-c2cc(=O)c3c(O)cc(O[C@@H]4O[C@H](CO[C@@H]5O[C@@H](C)[C@H](O)[C@@H](O)[C@H]5O)[C@@H](O)[C@H](O)[C@H]4O)cc3o2)cc1
Result block: 989.9197

Query block: // lookup Lipase (RFU) for CCCCCCCCCCCC(=O)O[C@H](CC(=O)[O-])C[N+](C)(C)C
Result block: 868.7983

Query block: Give its Lipase (RFU) value. Item: NC(=O)CC[C@@H]1NC(=O)[C@H](Cc2ccccc2)NC(=O)[C@H](Cc2ccc(O)cc2)NC(=O)[C@@H](N)CSSC[C@@H](C(=O)N2CCC[C@H]2C(=O)N[C@@H](CCCN=C(N)N)C(=O)NCC(N)=O)NC(=O)[C@H](CC(N)=O)NC1=O
Result block: 1150.397

Query block: Fill in the blank: the reported Lipase (RFU) of Oc1cc(O)c2c(c1)OC(c1ccc(O)c(O)c1)C(O)C2O (stereo not drawn) is ____.
Result block: 957.6226

Query block: What value of Lipase (RFU) has been reported for the following compound? c1ccc2c(c1)CCO2
Result block: 980.2989

Query block: Which Lipase (RFU) value is on record for C=C(C)[C@H]1C=C[C@@](C)(O)CC1 [cis-Isolimonenol] ?
Result block: 930.1567

Query block: Entry COc1cc2ccc(=O)oc2c(OC)c1O has what Lipase (RFU)?
Result block: 929.2612

Query block: I have this compound here, c1ccc2c(c1)Nc1ccccc1S2 , and I need its recorded Lipase (RFU).
Result block: 725.1361

Query block: Record request: Lipase (RFU) value, item NC(=O)c1ccc[n+]([C@@H]2O[C@H](COP(=O)([O-])OP(=O)(O)OC[C@H]3O[C@@H](n4cnc5c(N)ncnc54)[C@H](OP(=O)([O-])[O-])[C@@H]3O)[C@@H](O)[C@H]2O)c1.[Na+].[Na+] [NADP (disodium salt)]
Result block: 762.8961

Query block: What does the data say about its Lipase (RFU)? Entry: O=P([O-])([O-])OP(=O)(O)O.[Na+].[Na+] [Disodium pyrophosphate]
Result block: 1213.966

Query block: Return reported Lipase (RFU); argument: COc1ccc(-c2cc(=O)c3c(OC)cc(OC)c(OC)c3o2)cc1
Result block: 818.2248

Query block: Tell me the measured Lipase (RFU) of C[C@H](O)[C@H](O)c1cnc2nc(N)[nH]c(=O)c2n1 , please.
Result block: 1286.983

Query block: I'd like to know its Lipase (RFU). The compound in question is CC(C)CC(=O)O[C@H](CC(=O)[O-])C[N+](C)(C)C
Result block: 737.2804

Query block: # Lipase (RFU) lookup, item C[C@@H]1C(=O)O[C@H]2C[C@@]34[C@H]5C[C@@H](C(C)(C)C)[C@]36[C@@H](OC(=O)[C@@H]6O)O[C@@]4(C(=O)O5)[C@]21O [Ginkgolide A]
Result block: 772.6433

Query block: Query (compound): COc1cc(O)c2c(=O)cc(-c3ccccc3)oc2c1 ; field requested: Lipase (RFU)
Result block: 890.4365

Query block: Quick one: Lipase (RFU) of CC(C)=CCc1c2ccoc2c(O)c2oc(=O)ccc12 ?
Result block: 601.2746

Query block: Suppose we examine the compound C[C@H](CCC(=O)O)[C@H]1CC[C@H]2[C@@H]3CC[C@H]4C[C@@H](O)CC[C@]4(C)[C@H]3CC[C@]12C ; what Lipase (RFU) value has been reported?
Result block: 881.405

Query block: Entry CC(=O)N[C@H]1[C@H](O[C@H]2[C@H](O)[C@@H](NC(C)=O)C(O)O[C@@H]2CO)O[C@H](CO)[C@@H](O[C@@H]2O[C@H](CO)[C@@H](O)[C@H](O)[C@H]2NC(C)=O)[C@@H]1O (stereo partly drawn) has what Lipase (RFU)?
Result block: 1143.03

Query block: So what's the measured Lipase (RFU) for this one? O=P(O)(O)OC(CO)CO [b-Glycerol Phosphate]
Result block: 984.3562

Query block: Dear colleague, I am looking for the recorded Lipase (RFU) of the following compound: O=C1C[C@@H](C(=O)O)NC(=O)N1 [L-Dihydroorotic acid]
Result block: 1002.656

Query block: Recorded Lipase (RFU) of COc1cc(/C=C/C(=O)OCC[N+](C)(C)C)cc(OC)c1O.N#C[S-] [Sinapine (thiocyanate)] , please.
Result block: 1052.349

Query block: Please look up its Lipase (RFU): CC(=O)O[C@]1(C)CC[C@@]23C[C@@H]1C(C)(C)[C@@H]2CC[C@H]3C [Cedryl acetate]
Result block: 1088.309

Query block: Look up Lipase (RFU): O=c1ccc2cc(O)c(O[C@@H]3O[C@H](CO)[C@@H](O)[C@H](O)[C@H]3O)cc2o1
Result block: 714.076

Query block: Reported Lipase (RFU) for CCCCCCCCCCCCCC(=O)OC[C@@H](O)COP(=O)([O-])OCC[N+](C)(C)C : what is it?
Result block: 1043.126

Query block: Consider the compound shown here: N#CCCN What is its recorded Lipase (RFU)?
Result block: 985.2024

Query block: Form field: reported Lipase (RFU) of CC(C)[C@@H]1CC[C@H](C)CC1=O [(+)-Isomenthone]
Result block: 807.8808
